Target: ZTNF4 (BLyS/BAFF) (human)
Test: competition, 125I-ZTNF4 binding to TACI-coated plates
Endpoint Name: pIC50
Quick note: pIC50 means taking -log10 of the concentration in moles per liter.

[Q] Please give the measured pIC50 for this binder: TACI (d1-29, d111-154)-Fc5 (protein) MDAMKRGLCCVLLLCGAVFVSLSQEIHAELRRFRRAMRSCPEEQYWDPLLGTCMSCKTICNHQSQRTCAAFCRSLSCRKEQGKFYDHLLRDCISCASICGQHPKQCAYFCENKLRSEPKSSDKTHTCPPCPAPEAEGAPSVFLFPPKPKDTLMISRTPEVTCVVVDVSHEDPEVKFNWYVDGVEVHNAKTKPREEQYNSTYRVVSVLTVLHQDWLNGKEYKCKVSNKALPSSIEKTISKAKGQPREPQVYTLPPSRDELTKNQVSLTCLVKGFYPSDIAVEWESNGQPENNYKTTPPVLDSDGSFFLYSKLTVDKSRWQQGNVFSCSVMHEALHNHYTQKSLSLSPGK
[A] 8.64
